Tested on: Plasmodium falciparum
PROTOCOL DETAILS: GSK_TCMDC: Inhibition of Plasmodium falciparum 3D7 in whole red blood cells, using parasite LDH activity as an index of growth. Test compounds present at 2uM
Assay type: functional
// Inhibition lookup, one value per entry
QUANTITY MEASURED: Inhibition

1. CC1=C(C(=O)Nc2cc3cn[nH]c3cc2F)C(c2ccc(Cl)c(NS(C)(=O)=O)c2)CC(=O)N1 (stereo not given)    88%
2. CCN1CCN(c2cc(C)c3cc(NC(=O)c4cccc([N+](=O)[O-])c4)ccc3n2)CC1    99%
3. O=C(Nc1cccc(-c2ccc(-c3nc4cc(C(F)(F)F)ccc4[nH]3)cc2)c1)Nc1ccc(Cl)c(Cl)c1    100%
4. CCN(CCCN1CCCCC1)c1cc(C)nc(Nc2ccc(C)c(Br)c2)n1.O=C(O)C(F)(F)F    100%
5. Cc1ccc(-n2nc3ccc(NC(=O)c4ccc([N+](=O)[O-])o4)cc3n2)cc1C    94%
